# credit: the RNAGym collection of RNA variant scans (doi:10.1073/pnas.2313332121)

B1: TPR t1 (parent)
chain: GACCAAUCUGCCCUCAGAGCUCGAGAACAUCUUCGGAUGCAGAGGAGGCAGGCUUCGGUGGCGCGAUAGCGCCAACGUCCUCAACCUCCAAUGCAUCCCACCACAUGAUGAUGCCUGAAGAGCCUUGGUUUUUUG

Variants of: B1
assay-procedure: polymerase ribozyme fitness, log enrichment relative to wild type (log ratio); higher = more active; in vitro selection for triplet polymerase activity
I'd appreciate it if you could label each record using polymerase ribozyme fitness (log ratio) and these ranges: band A: < -4; band B: ≥ -4 and < -2; band C: ≥ -2

Ask | State the class of the variant shown: G69A U131A
Reply | band B

Ask | State the class of the variant shown: C8A G63U G77C G117C
Reply | band A

Ask | State the class of the variant shown: C49A C70U C80A U116C
Reply | band A

Ask | State the class of the variant shown: G45C C73U
Reply | band C

Ask | State the class of the variant shown: A90C U112A
Reply | band C

Ask | State the class of the variant shown: C64U A75U G93A
Reply | band C

Ask | State the class of the variant shown: U55A G57C U78C A103G C124A U125A
Reply | band A

Ask | State the class of the variant shown: A6U C20A G61U U125G
Reply | band B

Ask | State the class of the variant shown: G47A G69C C86A C97U C115U C124G U125C
Reply | band A

Ask | State the class of the variant shown: G52U C98U
Reply | band B

Ask | State the class of the variant shown: C12U A50G C56A C85G
Reply | band C

Ask | State the class of the variant shown: C28U U59C G61A C123U
Reply | band A

Ask | State the class of the variant shown: G36A G113U A119U
Reply | band A

Ask | State the class of the variant shown: G42A G69A G93C
Reply | band A

Ask | State the class of the variant shown: G36A G48A U112A U131C
Reply | band C

Ask | State the class of the variant shown: A18U U96C U112A
Reply | band C

Ask | State the class of the variant shown: A46U C62A
Reply | band B

Ask | State the class of the variant shown: U78G C97U U116C A121U U131A
Reply | band C

Ask | State the class of the variant shown: C11A U133A
Reply | band B

Ask | State the class of the variant shown: C31G G47A C80G C115U U126A
Reply | band A

Ask | State the class of the variant shown: G44U C97A
Reply | band A
